System: Enterococcus faecalis strain 2 (collection)
Assay: MIC/MBC broth-dilution (micromethod), CLSI
Format: cell-based
Conditions: E. FAECALIS strain 2, values without asterisk
METRIC: MIC

| COMPOUND | ASSAY RESULT |
| --- | --- |
| CC(C)(C)ON=Cc1cc(C=CC(=O)O)ccc1-c1ccc(O)c(C23CC4CC(CC(C4)C2)C3)c1 [Compound 12] | 2 µg/mL |
| N#C/C=C/c1ccc(-c2ccc(O)c(C34CC5CC(CC(C5)C3)C4)c2)cc1 (mixture of isomers) [Compound 1] | 32 µg/mL |
| O=C(O)/C(F)=C\c1ccc(-c2ccc(O)c(C34CC5CC(CC(C5)C3)C4)c2)cc1 [Compound 5] | 4 µg/mL |
| O=C(O)C=Cc1ccc(-c2ccc(OCCCCO)c(C34CC5CC(CC(C5)C3)C4)c2)cc1 [Compound 11] | 128 µg/mL |
| OCC#Cc1ccc(-c2ccc(O)c(C34CC5CC(CC(C5)C3)C4)c2)cc1 [Compound 2] | 0.5 µg/mL |
| CCCCC/C=C\C/C=C\CCCCCCCC(=O)Oc1ccc(-c2ccc(/C=C/C(=O)O)cc2)cc1C12CC3CC(CC(C3)C1)C2 [Compound 20] | 128 µg/mL |

###

Tested on: S. Aureus strain 1 (collection) mec a+
Assay: MIC/MBC broth-dilution (micromethod), CLSI
Type: cell-based
Conditions: Staphylococcus aureus, kills 99,9% of initial population
Below, each of the compounds is paired with its reported MBC value.

| STRUCTURE SMILES | MBC |
| --- | --- |
| O=C(O)/C(F)=C\c1ccc(-c2ccc(O)c(C34CC5CC(CC(C5)C3)C4)c2)cc1 | 8 to 16 µg/mL |
| N=C(N)NCc1cc(C=CC(=O)O)ccc1-c1ccc(O)c(C23CC4CC(CC(C4)C2)C3)c1.O=C(O)C(F)(F)F | 32 to 64 µg/mL |
| C/C(=C\c1ccc(-c2ccc(O)c(C34CC5CC(CC(C5)C3)C4)c2)cc1)C(=O)O | 4 to 8 µg/mL |
